- Experiment description: Volume of distribution in iv dosed mouse
- Format: ADME, organism-based
- Protocol conditions: in vivo
Result type: Vd (L/kg)

> print(dat)
                         compound.structure  numeric.readout
1  O=C(O)C1CCN(c2ccc3oc(-c4ccc(-c5ccccc5)c(C(F)(F)F)c4)nc3c2)CC1             1.48

###

- Assay target: Sphingosine 1-phosphate receptor 3 (Homo sapiens)
- Experiment description: Agonist activity at human SIP3 receptor assessed as calcium mobilization by GeneBLAzer assay
- Assay type: functional
pEC50: −log10 of the molar value.
Result type: pEC50

> print(dat)
                         compound.structure  result.type  result
1  CC(C)Oc1ncc(-c2nc3cc(CCCCCC(=O)O)cnc3o2)cc1Cl        pEC50  < 5.00
2  CC(C)Oc1ccc(-c2nc3cc(CC(=O)O)cnc3o2)cc1Cl        pEC50  < 5.00
3  CC(C)Oc1ccc(-c2nc3cc(CCCCCC(=O)O)cnc3o2)cc1C(F)(F)F        pEC50  < 5.00

###

- Assay target: Sphingosine 1-phosphate receptor 3 (Homo sapiens, UniProt Q99500)
- Sequence (Q99500 whole entry): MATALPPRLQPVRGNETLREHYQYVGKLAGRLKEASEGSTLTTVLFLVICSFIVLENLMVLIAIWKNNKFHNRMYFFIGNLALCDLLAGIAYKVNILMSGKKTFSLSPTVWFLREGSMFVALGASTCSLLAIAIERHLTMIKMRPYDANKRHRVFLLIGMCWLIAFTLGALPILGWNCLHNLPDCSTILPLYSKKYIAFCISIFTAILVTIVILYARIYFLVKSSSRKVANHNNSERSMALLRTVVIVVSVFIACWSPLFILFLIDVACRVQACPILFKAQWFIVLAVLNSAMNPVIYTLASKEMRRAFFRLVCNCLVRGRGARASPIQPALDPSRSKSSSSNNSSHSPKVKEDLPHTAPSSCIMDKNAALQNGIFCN
- Experiment description: Agonist activity at human SIP3 receptor assessed as calcium mobilization by GeneBLAzer assay
Result type: EC50

> print(dat)
                         compound.structure                              assay.target  result.type      result
1  O=C(O)CCCCCc1cnc2oc(-c3cc(-c4ccccc4)c(C(F)(F)F)s3)nc2c1  Sphingosine 1-phosphate receptor 3 (Homo sapiens, UniProt Q99500)         EC50  > 10000 nM
2  CC(C)Oc1ccc(-c2nc(-c3cccc4c3c(Cl)cn4CCC(=O)O)no2)cc1Cl  Sphingosine 1-phosphate receptor 3 (Homo sapiens, UniProt Q99500)         EC50  > 10000 nM
3  O=C(O)CC1CCN(c2ccc3oc(-c4ccc(-c5ccccc5)c(C(F)(F)F)c4)nc3c2)CC1  Sphingosine 1-phosphate receptor 3 (Homo sapiens, UniProt Q99500)         EC50     1260 nM
4  O=C(O)C1CCN(c2ccc3oc(-c4ccc(-c5ccccc5)c(C(F)(F)F)c4)nc3c2)CC1  Sphingosine 1-phosphate receptor 3 (Homo sapiens, UniProt Q99500)         EC50   > 3160 nM
5  CC(C)Oc1ccc(-c2nc3cc(CCC(=O)O)cnc3o2)cc1Cl  Sphingosine 1-phosphate receptor 3 (Homo sapiens, UniProt Q99500)         EC50  > 10000 nM
6  O=C(O)C1CN(c2ccc3oc(-c4ccc(-c5ccccc5)c(C(F)(F)F)c4)nc3c2)C1  Sphingosine 1-phosphate receptor 3 (Homo sapiens, UniProt Q99500)         EC50     2000 nM
7  CC(C)Oc1ccc(-c2nc3cc(CCCC(=O)O)cnc3o2)cc1Cl  Sphingosine 1-phosphate receptor 3 (Homo sapiens, UniProt Q99500)         EC50  > 10000 nM
8  O=C(O)CN1CCC(c2ccc3oc(-c4ccc(-c5ccccc5)c(C(F)(F)F)c4)nc3c2)CC1  Sphingosine 1-phosphate receptor 3 (Homo sapiens, UniProt Q99500)         EC50     2000 nM
9  CC(C)Oc1ncc(-c2nc3cc(CCCCCC(=O)O)cnc3o2)cc1C(F)(F)F  Sphingosine 1-phosphate receptor 3 (Homo sapiens, UniProt Q99500)         EC50  > 10000 nM

src = ChEMBL document CHEMBL2029246
